Test: inhibition of PAO1 biofilm formation – strain PAO1, LB-PBS medium, absorbance 600 nm, primary screen (AID 1176); further: test concentration not given here
Conditions: P. aeruginosa PAO1 growth/biofilm, A600, 12 h; higher = more signal
Classification scheme (z-score): c1 (below -0.06), c2 (-0.06 to below 0.4), c3 (0.4 or more)

{"COMPOUND": "O=C1NC(=O)C2C1C=CC(C(O)c1ccco1)N2Nc1ccc(Cl)cc1Cl (stereo not given)", "ASSIGNED_CATEGORY": "c3"}
{"COMPOUND": "CCCCC[C@H]1OC[C@@]23C=C(Br)[C@@H](CC12)[C@@]1(CO1)C3=O (stereo not given in full)", "ASSIGNED_CATEGORY": "c2"}
{"COMPOUND": "COc1cc(OC)c(C(O)C2C=CC3C(=O)N(Cc4ccccc4)C(=O)C3N2n2cnnc2)cc1Br (stereo not given)", "ASSIGNED_CATEGORY": "c1"}
{"COMPOUND": "COCCOC(=O)N1C(=O)[C@@]2(c3cc(C#CC4=CCCCC4)ccc31)[C@H](c1ccccc1OCCO)N1[C@H](c3ccccc3)[C@H](c3ccccc3)OC(=O)[C@H]1[C@@H]2C(=O)NC[C@H](O)c1ccccc1", "ASSIGNED_CATEGORY": "c3"}
{"COMPOUND": "Cc1cc(C)c(C(O)C2C=CC3C(=O)N(c4ccccc4)C(=O)C3N2Nc2ccccc2F)c(C)c1 (stereo not given)", "ASSIGNED_CATEGORY": "c3"}
{"COMPOUND": "Cc1ccc(N2C(=O)c3ccccc3[C@@H](C(=O)NCCCN(C)C)[C@@H]2c2ccc(CO)cc2)nc1", "ASSIGNED_CATEGORY": "c1"}
{"COMPOUND": "C#CCN(Cc1ccccc1Br)[C@H](/C=C/c1ccccc1)[C@@H](O)Cc1ccccc1", "ASSIGNED_CATEGORY": "c1"}
{"COMPOUND": "COc1cc2c(cc1O)C(C1CC1)N(Cc1cccc(OC(F)(F)F)c1)CC2 (stereo not given)", "ASSIGNED_CATEGORY": "c2"}

----------
Assay: blockers of DNA damage checkpoint Chk1 activation – imaging, HeLa, hydroxyurea, phospho-Chk1 antibody, percent positive cells, primary screen (AID 1186)
Conditions: hydroxyurea-induced phospho-Chk1 immunofluorescence imaging, higher = more signal

{"COMPOUND": "CCOC(=O)C[C@H]1[C@H](OC(=O)Cc2ccc3c(c2)OCO3)[C@@H](NC(=O)c2ccc3ccccc3n2)c2cc(OCCCO)ccc2N1C(=O)c1ccccc1", "z-score": -0.705}
{"COMPOUND": "CCCC=C(CCC)[C@@H](NC(=O)c1cccs1)c1ccc(C(=O)OC)cc1", "z-score": -0.255}
{"COMPOUND": "COc1ccc([Si](C)(C)[C@@H]2[C@@H](CCO)O[C@]3(C(=O)N(Cc4ccccc4)c4ccc(N5CCOC5=O)cc43)[C@H]2C)cc1", "z-score": -1.29}
{"COMPOUND": "C=CCNC(=O)[C@@H]1[C@H]2C(=O)O[C@H](c3ccccc3)[C@H](c3ccccc3)N2[C@H](c2ccccc2OCCO)[C@@]12C(=O)Nc1ccc(C#CCC(C(=O)OC)C(=O)OC)cc12", "z-score": 0.0648}
{"COMPOUND": "COc1cc2c(cc1O)C(c1cccs1)N(Cc1cc3c(cc1Br)OCO3)CC2 (stereo not given)", "z-score": -0.117}

----------
Quick list: z-score per entry.
Assay: resazurin metabolic signal in A549 cells – cell-based, resazurin fluorescence, 24 h, PK04 Diversity Set, profiling panel (AID 1171); further: test concentration not given here
Settings: A549 viability, higher = more signal, called active from +8 up or from −8 down
MEASURED_METRIC: z-score

{"MOLECULE": "CC(C)[Si](C#CCCCC#N)(O[C@H](c1ccccc1)c1cn(Cc2ccccc2)nn1)C(C)C", "MEASURED_METRIC": "z-score", "ASSAY_RESULT": -0.235}
{"MOLECULE": "COc1cc2c(cc1O)C(C1CC1)N(Cc1cccc(OC(F)(F)F)c1)CC2 (centres undefined)", "MEASURED_METRIC": "z-score", "ASSAY_RESULT": -1.05}
{"MOLECULE": "COCCOC(=O)N1C(=O)[C@@]2(c3ccccc31)[C@H](c1ccc(O)cc1)N1[C@H](c3ccccc3)[C@H](c3ccccc3)OC(=O)[C@H]1[C@@H]2C(=O)N1CCN(c2ncccn2)CC1", "MEASURED_METRIC": "z-score", "ASSAY_RESULT": 0.233}
{"MOLECULE": "COCCCNC(=O)[C@@]1(Sc2ccc(C)cc2)CC(=O)N(C2Cc3ccccc3C2)[C@@H]1c1ccc(CO)cc1", "MEASURED_METRIC": "z-score", "ASSAY_RESULT": 0.491}
{"MOLECULE": "CCCCC(=C=CC[C@H](O)c1ccc(OCCO)cc1)CCO", "MEASURED_METRIC": "z-score", "ASSAY_RESULT": 0.533}
{"MOLECULE": "CN(C)C(=O)[C@]1(Cc2ccccc2CN=[N+]=[N-])N=C(c2ccc(OCCCO)cc2)O[C@@H]1c1ccccc1", "MEASURED_METRIC": "z-score", "ASSAY_RESULT": 0.721}
{"MOLECULE": "O=C1N(CCS(=O)(=O)c2ccccc2)c2ccccc2[C@H]2OC(c3ccc(OCCCO)cc3)=N[C@@]12Cc1ccccc1", "MEASURED_METRIC": "z-score", "ASSAY_RESULT": -1.02}
{"MOLECULE": "O=C1O[C@@H](c2ccccc2)[C@@H](c2ccccc2)N2[C@@H](c3ccc(OCCO)cc3)[C@]3(C(=O)Nc4ccc(C#CC5=CCCCC5)cc43)[C@@H](C(=O)NC[C@H](O)c3ccccc3)[C@H]12", "MEASURED_METRIC": "z-score", "ASSAY_RESULT": -0.956}
{"MOLECULE": "COc1ccc([Si](C)(C)[C@@H]2[C@@H](CC(=O)N3CCC[C@H]3CO)O[C@]3(C(=O)N(Cc4cccc(N5C(=O)COc6ccccc65)c4)c4ccccc43)[C@H]2C)cc1", "MEASURED_METRIC": "z-score", "ASSAY_RESULT": -2.13}
{"MOLECULE": "CN(C)c1ccc(C(O)C2C=CC3C(=O)NC(=O)C3N2Nc2ccccn2)cc1 (centres undefined)", "MEASURED_METRIC": "z-score", "ASSAY_RESULT": -0.348}
{"MOLECULE": "COC(=O)[C@@]1(Cc2ccc(F)cc2)[C@H]2c3cc(C(=O)N4CCCC4)n(CCc4c[nH]c5ccccc45)c3C[C@H]2CN1C(=O)c1ccccc1", "MEASURED_METRIC": "z-score", "ASSAY_RESULT": -1.22}
{"MOLECULE": "Cc1ccc(S[C@]2(C(=O)NCc3ccccc3)CC(=O)N(C3CCCCC3)[C@@H]2c2ccc(CO)cc2I)cc1", "MEASURED_METRIC": "z-score", "ASSAY_RESULT": -0.99}
{"MOLECULE": "CCOC(=O)[C@@H]1CCCCN1C(=O)C(=O)OC", "MEASURED_METRIC": "z-score", "ASSAY_RESULT": -0.599}
{"MOLECULE": "CCC#CCN(Cc1ccccc1Br)[C@H](/C=C/C1CC1)[C@@H](O)Cc1ccccc1", "MEASURED_METRIC": "z-score", "ASSAY_RESULT": 2.76}
{"MOLECULE": "Cc1ccc(N2C(=O)c3ccccc3[C@@H](C(=O)NCCCN(C)C)[C@@H]2c2ccc(CO)cc2)nc1", "MEASURED_METRIC": "z-score", "ASSAY_RESULT": -0.0494}
{"MOLECULE": "CN(C)C(=O)[C@]1(CCC(=O)OC(C)(C)C)N=C(c2ccc(OCCCO)cc2)O[C@@H]1c1ccccc1CN=[N+]=[N-]", "MEASURED_METRIC": "z-score", "ASSAY_RESULT": 0.669}
{"MOLECULE": "O=C(NCCN1CCOCC1)[C@@H]1c2ccccc2C(=O)N(C2Cc3ccccc3C2)[C@H]1c1ccc(CO)cc1", "MEASURED_METRIC": "z-score", "ASSAY_RESULT": 0.326}
{"MOLECULE": "CN(C)C(=O)[C@@]1(Cc2ccccc2CN=[N+]=[N-])N=C(c2ccc(OCCCO)cc2)O[C@H]1c1ccccc1N=[N+]=[N-]", "MEASURED_METRIC": "z-score", "ASSAY_RESULT": -2.09}
{"MOLECULE": "CCCC=C(CCC)[C@@H](NS(=O)(=O)c1ccc(C(F)(F)F)cc1)c1ccccc1", "MEASURED_METRIC": "z-score", "ASSAY_RESULT": 0.221}
{"MOLECULE": "Cc1ccc(S[C@]2(C(=O)NCCN3CCOCC3)CC(=O)N(Cc3ccccc3Cl)[C@@H]2c2ccc(CO)cc2I)cc1", "MEASURED_METRIC": "z-score", "ASSAY_RESULT": -0.817}
{"MOLECULE": "CC(C)[Si](C#C[Si](C(C)C)(C(C)C)C(C)C)(O[C@H](c1ccccc1)c1cn(Cc2ccccc2)nn1)C(C)C", "MEASURED_METRIC": "z-score", "ASSAY_RESULT": 1.77}
{"MOLECULE": "CCCCC(CC)C(O)C1C=CC2C(=O)N(C)C(=O)C2N1Nc1ccccc1 (centres undefined)", "MEASURED_METRIC": "z-score", "ASSAY_RESULT": -0.83}
{"MOLECULE": "CCCCCCCCCC(O)C1C=CC2C(=O)N(c3ccccc3)C(=O)C2N1Nc1cc(OC)c(OC)c(OC)c1 (centres undefined)", "MEASURED_METRIC": "z-score", "ASSAY_RESULT": -1.58}
{"MOLECULE": "CC1CC/C=C\\[C@H]2OC34C=CCN(c5ccc6ccccc6c5)C(=O)[C@H]3N(CCCO)C(=O)[C@@H]4C2C(=O)O1 (some centres undefined)", "MEASURED_METRIC": "z-score", "ASSAY_RESULT": -0.525}
{"MOLECULE": "CC(=O)NCCCC[C@@H]1NC(=O)[C@@H]2C[C@H](C(=O)NCCCCCN)[C@H](c3ccc(O)cc3)N2C1=O", "MEASURED_METRIC": "z-score", "ASSAY_RESULT": -1.42}
{"MOLECULE": "COc1cccc(C)c1NC(=O)O[C@H]1[C@H](OC(=O)Nc2ccc3c(c2)OCO3)[C@@H](OC(=O)Nc2ccc3c(c2)OCO3)[C@@H](OC)O[C@@H]1CO", "MEASURED_METRIC": "z-score", "ASSAY_RESULT": -0.315}
{"MOLECULE": "C#Cc1cc2ccccc2oc1=O", "MEASURED_METRIC": "z-score", "ASSAY_RESULT": -0.629}
{"MOLECULE": "CC(C)c1ccc(NN2C(C(O)c3ccc(C#N)cc3)C=CC3C(=O)N(c4ccccc4)C(=O)C32)cc1 (centres undefined)", "MEASURED_METRIC": "z-score", "ASSAY_RESULT": -1.28}
{"MOLECULE": "CCCCN1CC=CC23O[C@@H]4/C=C\\CCC(C)OC(=O)C4[C@H]2C(=O)N(CCCO)[C@@H]3C1=O (some centres undefined)", "MEASURED_METRIC": "z-score", "ASSAY_RESULT": -0.523}
